- Test system: mongrel cats
- experiment-summary: Inotropic and heart-circulatory effectiveness on narcotised cats, intravenous
- Assay type: in vivo, cat
- measurement-parameters: 0.25 mg/kg i.v., before administration; 6 animals
assay-readout: dp/dt (inotropism) before (mm.Hg/sec)

>>> observed_result("O=[N+]([O-])O[C@H]1CO[C@H]2[C@@H]1OC[C@@H]2NCC(O)COc1cccc2ccccc12 (stereo partly drawn)")
8783
>>> observed_result("O=[N+]([O-])O[C@H]1CO[C@H]2[C@@H]1OC[C@@H]2NCCCCCc1ccccc1")
9600
>>> observed_result("C=CCc1ccccc1OCC(O)CN[C@H]1CO[C@H]2[C@@H]1OC[C@@H]2O[N+](=O)[O-] (stereo partly drawn)")
7840

* * *

- Tested on: female NMRI-albino mice
- experiment-summary: Acute toxicity, intravenous, mice
- Type: in vivo
- measurement-parameters: 200 mg/kg i.v., within 24 hours
assay-readout: Frequency of death

>>> observed_result("COc1cccc(OCCCN[C@H]2CO[C@H]3[C@@H]2OC[C@@H]3O[N+](=O)[O-])c1OC [Example 67]")
"3/3"
>>> observed_result("O=[N+]([O-])O[C@H]1CO[C@H]2[C@@H]1OC[C@@H]2NCCCCOc1ccccc1 [Example 37]")
"3/3"
>>> observed_result("CN(CCCc1ccccc1)[C@H]1CO[C@H]2[C@@H]1OC[C@@H]2O[N+](=O)[O-] [Example 21]")
"6/6"
>>> observed_result("CN(C)[C@H]1CO[C@H]2[C@@H]1OC[C@@H]2O[N+](=O)[O-] [12 b]")
"0/3"
>>> observed_result("O=[N+]([O-])O[C@H]1CO[C@H]2[C@@H]1OC[C@@H]2NCCCCc1ccccc1 [Example 29]")
"3/3"
>>> observed_result("CCN(CC)[C@H]1CO[C@H]2[C@@H]1OC[C@@H]2O[N+](=O)[O-] [13 b]")
"6/6"
>>> observed_result("O=[N+]([O-])O[C@H]1CO[C@H]2[C@@H]1OC[C@@H]2NCCCc1ccccc1 [Example 28]")
"3/3"
>>> observed_result("N[C@@H]1CO[C@H]2[C@@H]1OC[C@@H]2O[N+](=O)[O-] [2 b]")
"0/3"

* * *

- System: narcotised guinea pigs
- experiment-summary: Blood pressure experiments on guinea pigs, i.v.
- Assay type: in vivo, guinea pig
- measurement-parameters: 2.50 mg/kg i.v.
# key: entry, value: blood pressure after
assay-readout: blood pressure after (mm.Hg)

>>> observed_result("CCN[C@H]1CO[C@H]2[C@@H]1OC[C@@H]2O[N+](=O)[O-]")
27.25
>>> observed_result("C=CCc1ccccc1OCC(O)CN[C@H]1CO[C@H]2[C@@H]1OC[C@@H]2O[N+](=O)[O-] (some centres unmarked)")
20.25
>>> observed_result("CC(=O)N[C@H]1CO[C@H]2[C@@H]1OC[C@@H]2O[N+](=O)[O-]")
47.75
>>> observed_result("N#Cc1ccccc1OCC(O)CN[C@H]1CO[C@H]2[C@@H]1OC[C@@H]2O[N+](=O)[O-] (some centres unmarked)")
22.75
>>> observed_result("O=[N+]([O-])O[C@H]1CO[C@H]2[C@@H]1OC[C@@H]2N1CCCC1")
49.25
>>> observed_result("Cc1cccc(OCC(O)CN[C@H]2CO[C@H]3[C@@H]2OC[C@@H]3O[N+](=O)[O-])c1 (some centres unmarked)")
42.25
>>> observed_result("CC(C)(C)C(=O)N[C@H]1CO[C@H]2[C@@H]1OC[C@@H]2O[N+](=O)[O-]")
30.75
>>> observed_result("O=[N+]([O-])O[C@H]1CO[C@H]2[C@@H]1OC[C@@H]2NCC(O)COc1cccc2ccccc12 (some centres unmarked)")
44.75
>>> observed_result("CN1CCN([C@H]2CO[C@H]3[C@@H]2OC[C@@H]3O[N+](=O)[O-])CC1")
38.25
>>> observed_result("CCOc1ccccc1OCC(O)CN[C@H]1CO[C@H]2[C@@H]1OC[C@@H]2O[N+](=O)[O-] (some centres unmarked)")
25.75
>>> observed_result("O=[N+]([O-])O[C@H]1CO[C@H]2[C@@H]1OC[C@@H]2NCC(O)COc1cccc(C(F)(F)F)c1 (some centres unmarked)")
39.00
>>> observed_result("O=[N+]([O-])O[C@H]1CO[C@H]2[C@@H]1OC[C@@H]2N1CCOCC1")
43.25
>>> observed_result("O=[N+]([O-])O[C@H]1CO[C@H]2[C@@H]1OC[C@@H]2N1CCCCC1")
49.00
>>> observed_result("N[C@@H]1CO[C@H]2[C@@H]1OC[C@@H]2O[N+](=O)[O-]")
31.75
